Test system: MILI (PIWIL2) piRISC loaded with L1MC piRNA (26 nt);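 further: 1 nM active piRISC with 0.1 nM target library at 33 °C single turnover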
protocolSummary: pre-steady-state target cleavage rate (min^-1); guide: L1MC piRNA 5'p-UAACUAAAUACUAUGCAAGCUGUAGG; MIWI and MILI are mouse PIWI proteins and EfPiwi is from a freshwater sponge; tags in brackets are library labels; higher = faster piRNA-guided slicing of the target
conditionNotes: auxiliary factor: none (no GTSF1)
resultType: pre-steady-state target cleavage rate

UCCUGGAUGUCGUUGCAUACUAUUUAGUUA | 0.00383
UCCUGGAUCAGCAAGCAUAGUAUUUAGUAA | 0.00292
UCCUGCUUACAGCUUGCAUAGUAUUUAGUUA | 0.0088
UCCUGGAUGAGCUUGCAUAGUAUUUAGUGA | 0.00439
UCCUGCUACUGCUUGCAAAGUAUUUAGUUA | 0.00523
UCCUCCAACAGCUUGCAUAGUAUUUAGUAA | 0.00476
UCCUGGAUGAGCUUGCAUUGUAUUAAGUUA | 0.00381
UCCUGGAUGUCGAACGUAAGUAUUUAUUUA | < 0.0001

Required: pre-steady-state target cleavage rate, one value per sequence below.
1. UCCUGGAUGAGCUAGCUUAGUAUUUAGUUA
2. UCCUCCUACAGCUUGAUAGUAUUUAGUUA
3. UCCUGCUACAGCUUGCAUAGUAUCUUAGUUA
4. UCCUGGUACAGUUGCAUAGUAUUUAGUUA

1: 0.00773; 2: 0.00404; 3: 0.00985; 4: 0.0115

Value sought for every listed sequence: pre-steady-state target cleavage rate.
1. UCCUCCUACACCUUGCAUAGUAUUUAGUUA
2. UCCUGGAUGUCGUUACAUAGUAUUUAGUUA
3. UCCUGGAUCACCUAGCAUAGUAUUUAGUUA

1: 0.0085; 2: 0.00442; 3: 0.00435

FYI, the data here is from the supplement of paper PMC10338343.
